- Test system: SD rats
- procedure.summary: Anti-epilepsy activity, MES test, rat
- Format: in vivo
- Protocol: In the MES test (Ref., G. Villetti et al. Neuropharmacology 40 (2001) 866-878), an electrical stimulus (mice: 50 mA, 60 Hz, 0.2 sec, and rats: 150 mA, 60 Hz, 0.2 sec in the test animal) supplied by an 11A Shocker (IITC Life Science Company) was delivered through corneal electrodes. […] The ED50 value (median effective dose) was calculated by Litchfield and Wicoxon log-probit method which is a dose-response relationship. […]
result.type: MES test (po) Peak time

- molecule.smiles: "COCO[C@H](c1ccccc1F)[C@@H](C)OS(N)(=O)=O"
  experimental.target: "SD rats"
  value.reported: "(4 h)"
- molecule.smiles: "COCO[C@H](c1ccccc1Cl)[C@@H](C)OS(N)(=O)=O"
  experimental.target: "SD rats"
  value.reported: "(1 h)"
- molecule.smiles: "C[C@@H](OS(N)(=O)=O)[C@H](O)c1c(Cl)cccc1Cl"
  experimental.target: "SD rats"
  value.reported: "(1 h)"
- molecule.smiles: "COCO[C@H](c1ccccc1I)[C@@H](C)OS(N)(=O)=O"
  experimental.target: "SD rats"
  value.reported: "(2 h)"
- molecule.smiles: "C[C@@H](OS(N)(=O)=O)[C@H](O)c1ccccc1F"
  experimental.target: "SD rats"
  value.reported: "(2 h)"

QUERY: Read off the recorded MES test (po) Peak time for `C[C@H](OS(N)(=O)=O)[C@@H](O)c1c(Cl)cccc1Cl`
RESULT: (2 h)

QUERY: Read off the recorded MES test (po) Peak time for `C[C@@H](OS(N)(=O)=O)[C@H](O)c1ccccc1I`
RESULT: (2 h)

QUERY: Read off the recorded MES test (po) Peak time for `C[C@@H](OS(N)(=O)=O)[C@H](O)c1ccccc1Cl`
RESULT: (2 h)
